STUDY SYSTEM: HDAC1 (Homo sapiens, UniProt Q13547)
Sequence (Q13547 whole entry, species assumed): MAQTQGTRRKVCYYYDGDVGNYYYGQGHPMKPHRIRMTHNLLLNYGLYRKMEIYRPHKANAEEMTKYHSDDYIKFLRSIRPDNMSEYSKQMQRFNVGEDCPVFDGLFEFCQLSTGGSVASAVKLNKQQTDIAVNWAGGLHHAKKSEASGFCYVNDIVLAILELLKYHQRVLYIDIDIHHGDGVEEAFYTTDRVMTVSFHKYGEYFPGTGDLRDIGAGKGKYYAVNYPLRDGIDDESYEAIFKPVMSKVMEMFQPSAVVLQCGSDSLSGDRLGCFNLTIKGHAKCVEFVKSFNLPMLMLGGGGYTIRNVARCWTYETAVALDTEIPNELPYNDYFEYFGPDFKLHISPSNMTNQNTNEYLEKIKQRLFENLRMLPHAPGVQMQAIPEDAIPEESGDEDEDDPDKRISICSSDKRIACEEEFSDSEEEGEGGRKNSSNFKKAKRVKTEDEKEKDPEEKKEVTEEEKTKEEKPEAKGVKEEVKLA
ASSAY EXPLANATION: HDAC biochemical activity measurement (fluorescent substrate deacetylation);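 for IC50 HDAC1: fluorogenic acetyl-lysine substrate (20 µM) deacetylated by HDAC1, then developer releases fluorophore read at 360 nm excitation and 460 nm emission, inhibitor incubated 30 min at 37 °C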
TEST CONTEXT: HDAC1; 37° C. 30 minutes; read-out: IC50 HDAC1
pIC50: −log10 of the molar value.
RECORDED METRIC: pIC50

| SUBSTANCE SMILES | pIC50 |
| --- | --- |
| C/C=C1\NC(=O)c2cccc(n2)CNC(=O)C[C@@H](/C=C/CCSC(=O)CCCCCCC)OC(=O)[C@H](C(C)(C)C)NC1=O | 7.14 |
| C/C=C1\NC(=O)c2nc(ccc2SC)CNC(=O)C[C@@H](/C=C/CCSC(=O)CCCCCCC)OC(=O)[C@H](CC)NC1=O | 7.17 |
| C/C=C1\NC(=O)c2nc(ccc2SC)CNC(=O)C[C@@H](/C=C/CCSC=O)OC(=O)[C@H](C(C)C)NC1=O | 7.04 |

====

Tested on: H1975 (non-small cell lung adenocarcinoma)
ASSAY EXPLANATION: MTT cancer cell growth inhibition
Type: cell-based
TEST CONTEXT: Homo sapiens, NCI-H1975, 72 h, MTT, 72 hours incubation, H1975 cells; read-out: GI50 H1975
RECORDED METRIC: GI50 (nM)

Would you please look over these solved cases?
| SUBSTANCE SMILES | ASSAY RESULT |
| --- | --- |
| C/C=C1\NC(=O)c2cc(SCC)cc(n2)CNC(=O)C[C@@H](/C=C/CCSC(=O)CCCCCCC)OC(=O)[C@H](C(C)C)NC1=O | 65 |
| C/C=C1\NC(=O)c2ccc(F)c(n2)CNC(=O)C[C@@H](/C=C/CCS)OC(=O)[C@H](C(C)C)NC1=O | 33 |

1. C/C=C1\NC(=O)c2nc(ccc2SC)CNC(=O)C[C@@H](/C=C/CCSC(C)=O)OC(=O)[C@H](Cc2ccccc2)NC1=O
2. C/C=C1\NC(=O)c2nc(ccc2F)CNC(=O)C[C@@H](/C=C/CCSC(=O)CCCC)OC(=O)[C@H](C(C)C)NC1=O
## Task Between 1 and 2 , which one shows the larger GI50 value? Reply with the label of the item you choose.
## Result 1

====

STUDY SYSTEM: HDAC8 (Homo sapiens, UniProt Q9BY41)
Sequence (Q9BY41 whole entry, species assumed): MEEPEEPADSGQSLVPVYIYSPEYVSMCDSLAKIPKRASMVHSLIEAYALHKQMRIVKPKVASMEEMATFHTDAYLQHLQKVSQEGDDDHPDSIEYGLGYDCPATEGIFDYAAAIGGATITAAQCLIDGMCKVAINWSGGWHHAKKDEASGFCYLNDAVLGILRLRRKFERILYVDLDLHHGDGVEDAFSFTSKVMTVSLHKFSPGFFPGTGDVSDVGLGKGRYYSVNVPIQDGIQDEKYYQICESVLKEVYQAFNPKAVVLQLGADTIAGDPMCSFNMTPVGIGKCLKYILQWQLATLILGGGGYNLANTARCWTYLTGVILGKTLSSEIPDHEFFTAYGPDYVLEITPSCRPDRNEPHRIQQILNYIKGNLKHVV
RECORDED METRIC: IC50 (nM)

Would you please look over these solved cases?
| COMPOUND | STUDY SYSTEM | READING UNIT | IC50 |
| --- | --- | --- | --- |
| C/C=C1\NC(=O)c2cc(F)cc(n2)CNC(=O)C[C@@H](/C=C/CCSC(=O)CC)OC(=O)[C@H](C(C)C)NC1=O [Compound 46] | HDAC8 (Homo sapiens, UniProt Q9BY41) | nM | 35 |
| C/C=C1\NC(=O)c2nc(ccc2C)CNC(=O)C[C@@H](/C=C/CCSC(=O)CCCCCCC)OC(=O)[C@H](C(C)C)NC1=O [Compound 243] | HDAC8 (Homo sapiens, UniProt Q9BY41) | nM | 129 |
| C/C=C1\NC(=O)c2ccc(F)c(n2)CNC(=O)C[C@@H](/C=C/CCSC(C)=O)OC(=O)[C@H](CCCCNC(=O)OCC2c3ccccc3-c3ccccc32)NC1=O [Example 77] | HDAC8 (Homo sapiens, UniProt Q9BY41) | nM | 37 |

I. C/C=C1\NC(=O)c2cc(SC)cc(n2)CNC(=O)C[C@@H](/C=C/CCSC(=O)CCCCCC)OC(=O)[C@H](C(C)C)NC1=O [Compound 151]
II. C/C=C1\NC(=O)c2nc(ccc2SCCC)CNC(=O)C[C@@H](/C=C/CCSC(=O)CCCCCCC)OC(=O)[C@H](CC)NC1=O [Compound 174]
## Task Between I and II , which one shows the larger IC50 value? Reply with the label of the item you choose.
## Result I

A. C/C=C1\NC(=O)c2ccc(SC)c(n2)CNC(=O)C[C@@H](/C=C/CCSC(=O)CCCCCCC)OC(=O)[C@H](Cc2ccccc2)NC1=O [Compound 191]
B. C/C=C1\NC(=O)c2ccc(F)c(n2)CNC(=O)C[C@@H](/C=C/CCSC(C)=O)OC(=O)[C@H](CCCCN)NC1=O [Example 74]
C. C/C=C1\NC(=O)c2cccc(n2)CNC(=O)C[C@@H](/C=C/CCSC(C)=O)OC(=O)[C@H](Cc2ccccc2)NC1=O [Compound 13]
D. C/C=C1\NC(=O)c2cccc(n2)CNC(=O)C[C@@H](/C=C/CCSC(=O)CCCCCCC)OC(=O)[C@H](c2ccc(O)cc2)NC1=O [Compound 238]
E. C/C=C1\NC(=O)c2cccc(n2)CNC(=O)C[C@@H](/C=C/CCSC(C)=O)OC(=O)[C@H](CC)NC1=O [Compound 10]
## Task Sort by IC50, descending. Please respond with the labels ordered as the question requires.
## Result B, C, D, E, A
(B: 435 nM, C: 159 nM, D: 78 nM, E: 50 nM, A: 18 nM)

====

Tested on: A549 (human lung cancer cells)
ASSAY EXPLANATION: MTT cancer cell growth inhibition
Assay type: cell-based
TEST CONTEXT: Homo sapiens, A549, 72 h, A549 cells, MTT, 72 hours incubation; read-out: GI50 A54
RECORDED METRIC: GI50 (nM)

Would you please look over these solved cases?
| SUBSTANCE SMILES | STUDY SYSTEM | GI50 (nM) |
| --- | --- | --- |
| C/C=C1\NC(=O)c2nc(ccc2SC)CNC(=O)C[C@@H](/C=C/CCS)OC(=O)[C@H](C)NC1=O | A549 (human lung cancer cells) | 30 |
| C=C1NC(=O)c2cc(SC)cc(n2)CNC(=O)C[C@@H](/C=C/CCSC(C)=O)OC(=O)[C@H](C(C)C)NC1=O | A549 (human lung cancer cells) | 50 |
| C/C=C1\NC(=O)c2ccc(SC)c(n2)CNC(=O)C[C@@H](/C=C/CCSC(C)=O)OC(=O)[C@H](Cc2ccc(O)cc2)NC1=O | A549 (human lung cancer cells) | 30 |
| C/C=C1\NC(=O)c2nc(ccc2SCC)CNC(=O)C[C@@H](/C=C/CCSC(=O)CCCCC)OC(=O)[C@H](C(C)C)NC1=O | A549 (human lung cancer cells) | 30 |
| C/C=C1\NC(=O)c2cc(SC)cc(n2)CNC(=O)C[C@@H](/C=C/CCSC(C)=O)OC(=O)[C@H](CC)NC1=O | A549 (human lung cancer cells) | 30 |

1. C/C=C1\NC(=O)c2ccc(SCC)c(n2)CNC(=O)C[C@@H](/C=C/CCSC(=O)CCCCCCC)OC(=O)[C@H](C(C)C)NC1=O
2. C/C=C1\NC(=O)c2cccc(n2)CNC(=O)C[C@@H](/C=C/CCSC(=O)CCCCCCC)OC(=O)CNC1=O
## Task // task: argmin of GI50 over [ 1 , 2 ] Reply with the label of the item you choose.
## Result 2

====

STUDY SYSTEM: UniProt:O15379
Sequence (O15379 whole entry, species assumed): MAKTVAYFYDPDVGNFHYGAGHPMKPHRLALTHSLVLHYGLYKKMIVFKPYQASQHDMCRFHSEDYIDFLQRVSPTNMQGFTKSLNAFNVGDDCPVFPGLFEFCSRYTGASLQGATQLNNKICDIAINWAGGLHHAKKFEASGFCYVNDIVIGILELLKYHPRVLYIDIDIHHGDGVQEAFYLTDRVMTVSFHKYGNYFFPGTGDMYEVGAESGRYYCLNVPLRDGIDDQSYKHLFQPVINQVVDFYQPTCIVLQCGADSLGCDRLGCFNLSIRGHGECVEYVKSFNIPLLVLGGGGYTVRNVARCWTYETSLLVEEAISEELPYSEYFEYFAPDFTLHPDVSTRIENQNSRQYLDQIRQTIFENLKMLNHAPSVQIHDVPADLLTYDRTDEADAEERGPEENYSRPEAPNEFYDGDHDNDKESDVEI
Sequence (Q9Y618 395-489 partner limits assumed, species assumed): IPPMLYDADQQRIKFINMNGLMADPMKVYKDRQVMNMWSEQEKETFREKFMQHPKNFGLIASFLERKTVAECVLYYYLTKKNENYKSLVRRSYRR
ASSAY EXPLANATION: HDAC biochemical activity measurement (fluorescent substrate deacetylation)
TEST CONTEXT: read-out: IC50 HDAC3; HDAC3; 37° C. 30 minutes
RECORDED METRIC: IC50 (nM)

| MOLECULE | IC50, nM |
| --- | --- |
| C/C=C1\NC(=O)c2cccc(n2)CNC(=O)C[C@@H](/C=C/CCSC(=O)CCCCCCC)OC(=O)[C@@H](C)NC1=O [Compound 236] | 66 |
| C/C=C1\NC(=O)c2cccc(n2)CNC(=O)C[C@@H](/C=C/CCSC(C)=O)OC(=O)[C@H](Cc2cccc3ccccc23)NC1=O [Compound 17] | 69 |
| CCCCCCCC(=O)SCC/C=C/[C@@H]1CC(=O)NCc2cccc(n2)C(=O)NCC(=O)N[C@@H](C(C)C)C(=O)O1 [Compound 246] | 87 |

====

Test system: HCC827 (human non-small cell lung cancer cells)
ASSAY EXPLANATION: MTT cancer cell growth inhibition
Type: cell-based
TEST CONTEXT: Homo sapiens, HCC827, 72 h, MTT, 72 hours incubation, HCC827 cells; read-out: GI50 HCC827
Excerpt: MTT assay principle is yellow MTT can penetrate membrane into the cell, succinic dehydrogenase of the mitochondria in living cells can make exogenous MTT reduction of insoluble in water of blue-violet acicular formazan for crystallization and deposition in the cell, crystallization can be dissolved dimethyl sulfoxide (DMSO) solution, detected its absorbance at 490 nm/570 nm wavelength by enzyme-linked immunosorbent assay, which can reflect the number of cells. […] e) 570 nm readings. […]
RECORDED METRIC: GI50 (µM)

| SUBSTANCE SMILES | STUDY SYSTEM | RECORDED METRIC | ASSAY RESULT |
| --- | --- | --- | --- |
| C/C=C1\NC(=O)c2ccc(F)c(n2)CNC(=O)C[C@@H](/C=C/CCSC(=O)CCCCCC)OC(=O)[C@H](C(C)C)NC1=O | HCC827 (human non-small cell lung cancer cells) | GI50 | 0.051 |
| C/C=C1\NC(=O)c2cc(F)cc(n2)CNC(=O)C[C@@H](/C=C/CCSC(C)=O)OC(=O)[C@H](CC)NC1=O | HCC827 (human non-small cell lung cancer cells) | GI50 | 0.049 |
| C=C1NC(=O)c2cc(F)cc(n2)CNC(=O)C[C@@H](/C=C/CCSC(C)=O)OC(=O)[C@H](C)NC1=O | HCC827 (human non-small cell lung cancer cells) | GI50 | 0.051 |
